System: XIP peptide (Xip251-270) binding
assay.remarks: small-molecule binders of XIP peptide, primary screen, biochemical, small-molecule microarray, fluorescence 635/667 nm, 0.1 µg/mL protein (AID 1182)
experimental.parameters: fluorescent protein binding, 635 nm, higher = more signal, called active from +8 up or from −8 down
measured.parameter: composite z-score
Note: the reply should be a number with no unit written.

// worked examples, composite z-score included
1. CC(C)N1C(=O)[C@@]2(Cc3ccccc31)c1ccccc1C(=O)N(C1CCCCC1)[C@H]2c1ccc(CO)cc1: -0.091
2. CCCC[C@H]1OB(O)C[C@H]2C1=C(COc1ccccc1)C[C@H]1C(=O)N(C)C(=O)[C@H]12: -0.146
3. O=C1c2ccccc2[C@](Cc2ccccc2I)(C(=O)NC2CC2)[C@H](c2ccc(CO)cc2)N1C1CCCCC1: 0.247
4. CC1(C)[C@@H]2CC(C(O)C3C=CC4C(=O)N(c5ccccc5)C(=O)C4N3Nc3ccccc3)=C[C@H]1C2 (some centres not stated): 0.386
5. COc1ccc([Si](C)(C)[C@H]2[C@H](CC(=O)N3CCC[C@H]3CO)O[C@@]3(C(=O)N(Cc4cccc(N5C(=O)c6cccc7cccc5c67)c4)c4ccccc43)[C@@H]2C)cc1: 0.397

QUERY: For the compound COc1cc(CO)cc(I)c1O[C@H]1C=C(C(=O)NCCO)C[C@@H](N(CCN2CCOCC2)C(=O)C2CCOC2)[C@@H]1O (some centres not stated) , what composite z-score is on record?
RESULT: 0.384

QUERY: Same question, `COc1ccc([Si](C)(C)[C@H]2[C@H](CCO)O[C@@]3(C(=O)N(Cc4ccc(N5C(=O)COc6ccccc65)cc4)c4ccccc43)[C@@H]2C)cc1` this time
RESULT: 0.0409

###

assay.remarks: basal HepG2 mitochondrial membrane potential changes, profiling panel, cell-based, JC-1 fluorescence, 24 h, 100 nL compound (AID 1167)
experimental.parameters: higher = more signal
Recorded z-score for the following molecules
Respond using a number only.

1) CC(C)N1C(=O)[C@@]2(Cc3ccccc31)c1ccccc1C(=O)N(C1CCCCC1)[C@H]2c1ccc(CO)cc1: 0.095
2) CCN(CC)c1ccc(N2CC=CC34O[C@@H]5/C=C\CCC(C)OC(=O)C5[C@H]3C(=O)N(C(CO)C(C)C)[C@@H]4C2=O)cc1 (stereo partly drawn): 0.96
3) COc1ccc(COC2OC[C@]3(C)[C@H]4C5=C(CN3C(=O)OC(C)(C)C)[C@H](C)C(CO)C(CO)C5CC[C@@H]24)cc1 (stereo partly drawn): 1.24
4) O=C(c1ccccc1)N1Cc2ccccc2[C@@H]2OC(c3ccc(OCCCO)cc3)=N[C@]2(Cc2ccccc2)C1=O: -0.435
5) COc1ccc(CCNC(=O)[C@@]2(Sc3ccc(C)cc3)CC(=O)N(C3CCCCC3)[C@@H]2c2ccc(CO)cc2I)cc1: -0.836
6) COC(=O)[C@@]1(Cc2ccc(F)cc2)[C@H]2c3cc(C(=O)N(C)C)n(Cc4nc5ccccc5[nH]4)c3C[C@H]2CN1C(=O)c1ccccc1: -0.0736
7) COC(=O)C=C(CC(O)c1cccc(Cl)c1)OC (stereo not drawn): 0.456

Then there is this molecule:
QUERY: Can you share its z-score? I mean this molecule: `CN(C)C(=O)[C@@]1(Cc2ccccc2)N=C(c2ccc(OCCCO)cc2)O[C@H]1c1ccccc1N=[N+]=[N-]`
RESULT: 1.48

Ref: PubChem BioAssay
